Tested on: Streptococcus pyogenes SSI-9
ASSAY DETAILS: Antibacterial activity assay of bead-derived peptides (three concentrations)
Format: cell-based
Set-up: key: +++: inhibition by the 640-fold diluted peptide solution; ++: inhibition by the 160-fold diluted solution; +: inhibition by the 40-fold diluted solution; -: no inhibition
TEST CONTEXT: S. pyogenes, bead-derived peptide solution, three concentrations
Where a SMILES comes first, the peptide text is derived from it. [ ]: non-standard residue; d: D form. The star is where a group is joined. NHCH2CH2OH = OCCN*; For = O=C*
READOUT TYPE: antibacterial activity

MOLECULE: CNC(=O)C[C@@H](NC(=O)[C@H](C)NC(=O)[C@H](NC(=O)[C@H](C)NC(=O)CNC(=O)[C@@H](NC=O)C(C)C)C(C)C)C(=O)N[C@H](C(=O)N[C@H](CC(C)C)C(=O)N[C@@H](Cc1c[nH]c2ccccc12)C(=O)N[C@H](CC(C)C)C(=O)N[C@@H](Cc1c[nH]c2ccccc12)C(=O)N[C@@H](C(=O)N[C@@H](Cc1c[nH]c2ccccc12)C(=O)N[C@H](CC(C)C)C(=O)N[C@@H](Cc1c[nH]c2ccccc12)C(=O)NCCO)C(C)C)C(C)C [compound 1489] (For-VGA[dV]A[dD](NHMe)V[dL]W[dL]W[dV]W[dL]W-NHCH2CH2OH)
READOUT TYPE: antibacterial activity
MEASURED RESULT: -
--
MOLECULE: CNC(=O)C[C@@H](NC(=O)[C@@H](NC(=O)[C@@H](CC(C)C)NC(=O)[C@H](C)NC(=O)[C@@H](CC(C)C)NC(=O)[C@H](C)NC(=O)CNC(=O)[C@@H](NC=O)C(C)C)C(C)C)C(=O)N[C@@H](Cc1c[nH]c2ccccc12)C(=O)N[C@H](CC(C)C)C(=O)N[C@@H](Cc1c[nH]c2ccccc12)C(=O)N[C@@H](C(=O)N[C@@H](Cc1c[nH]c2ccccc12)C(=O)N[C@H](CC(C)C)C(=O)N[C@@H](Cc1c[nH]c2ccccc12)C(=O)NCCO)C(C)C [compound 7400] (For-VGA[dL]A[dL]V[dD](NHMe)W[dL]W[dV]W[dL]W-NHCH2CH2OH)
READOUT TYPE: antibacterial activity
MEASURED RESULT: -
--
MOLECULE: CC(C)C[C@@H](NC(=O)[C@H](C)NC(=O)CNC(=O)[C@@H](NC=O)C(C)C)C(=O)N[C@@H](C)C(=O)N[C@@H](C(=O)N[C@H](C(=O)N[C@@H](C(=O)N[C@@H](Cc1c[nH]c2ccccc12)C(=O)N[C@H](CC(C)C)C(=O)N[C@@H](Cc1c[nH]c2ccccc12)C(=O)N[C@H](CC(C)C)C(=O)N[C@@H](Cc1c[nH]c2ccccc12)C(=O)N[C@H](CC(C)C)C(=O)N[C@@H](Cc1c[nH]c2ccccc12)C(=O)NCCO)C(C)C)C(C)C)C(C)C [compound 9000] (For-VGA[dL]A[dV]V[dV]W[dL]W[dL]W[dL]W-NHCH2CH2OH)
READOUT TYPE: antibacterial activity
MEASURED RESULT: +
--
MOLECULE: CC(C)C[C@@H](NC(=O)[C@@H](NC(=O)[C@H](NC(=O)[C@H](C)NC(=O)[C@H](NC(=O)[C@H](C)NC(=O)CNC(=O)[C@@H](NC=O)C(C)C)C(C)C)C(C)C)C(C)C)C(=O)N[C@@H](Cc1c[nH]c2ccccc12)C(=O)N[C@@H](C(=O)N[C@@H](Cc1c[nH]c2ccccc12)C(=O)N[C@@H](C(=O)N[C@@H](Cc1c[nH]c2ccccc12)C(=O)N[C@@H](C(=O)N[C@@H](Cc1c[nH]c2ccccc12)C(=O)NCCO)[C@H](C)O)C(C)C)C(C)C [compound 7050] (For-VGA[dV]A[dV]V[dL]W[dV]W[dV]W[dT]W-NHCH2CH2OH)
READOUT TYPE: antibacterial activity
MEASURED RESULT: -
